# System: T1, MinD (E. coli) (E. coli, UniProt P0AEZ3 1-270)
# T1 construct: source: E. coli Rosetta(DE3)pLysS, purified (nickel IMAC, desalting); His tag removed with thrombin; not shown: T7 tag, N-terminal, kept
# T1 sequence (looked up): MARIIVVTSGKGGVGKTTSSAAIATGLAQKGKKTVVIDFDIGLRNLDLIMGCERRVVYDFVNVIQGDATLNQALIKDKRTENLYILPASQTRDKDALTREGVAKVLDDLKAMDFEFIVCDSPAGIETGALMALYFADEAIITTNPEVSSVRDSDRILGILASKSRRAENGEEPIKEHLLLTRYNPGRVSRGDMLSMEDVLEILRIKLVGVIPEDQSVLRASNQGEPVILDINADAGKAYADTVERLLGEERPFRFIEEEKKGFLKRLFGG
# Assay comment: co-sedimentation; liposome co-sedimentation without DNA, competition: MinD 1 uM, MinC 1 uM, increasing MinE, 160 ug/mL liposomes, 1 mM ATP, ATPase buffer; SDS-PAGE, Coomassie
# Conditions: both partners purified
Metric: binding result

Solved entries (count: 4):
[
  {
    "Binder": "MinE (E. coli) (natural protein, UniProt P0A734 1-88, looked up, a T7 tag from pET28a may be left; source: E. coli Rosetta(DE3)pLysS, purified (nickel IMAC, desalting)) MALLDFFLSRKKNTANIAKERLQIIVAERRRSDAEPHYLPQLRKDILEVICKYVQIDPEMVTVQLEQKDGDISILELNVTLPEAEELK",
    "binding result": "binds"
  },
  {
    "Binder": "MinC-1xAGGSG linker mutant (natural protein, E. coli, MinC, E. coli MG1655, N-terminal part before the linker, residues 1-101; linker that replaces residues 102-120 of MinC; MinC, E. coli MG1655, C-terminal part after the linker, residues 121-231; source: E. coli Rosetta(DE3)pLysS, purified (nickel IMAC, desalting); His tag removed with thrombin; not shown: T7 tag, N-terminal, kept) MSNTPIELKGSSFTLSVVHLHEAEPKVIHQALEDKIAQAPAFLKHAPVVLNVSALEDPVNWSAMHKAVSATGLRVIGVSGCKDAQLKAEIEKMGLPILTEGAGGSGPVTKTRLIDTPVRSGQRIYAPQCDLIVTSHVSAGAELIADGNIHVYGMMRGRALAGASGDRETQIFCTNLMAELVSIAGEYWLSDQIPAEFYGKAARLQLVENALTVQPLN",
    "binding result": "binds"
  },
  {
    "Binder": "MinC-4xAGGSG linker mutant (natural protein, E. coli, MinC, E. coli MG1655, N-terminal part before the linker, residues 1-101; linker that replaces residues 102-120 of MinC: AGGSG repeated four times; MinC, E. coli MG1655, C-terminal part after the linker, residues 121-231; source: E. coli Rosetta(DE3)pLysS, purified (nickel IMAC, desalting); His tag removed with thrombin; not shown: T7 tag, N-terminal, kept) MSNTPIELKGSSFTLSVVHLHEAEPKVIHQALEDKIAQAPAFLKHAPVVLNVSALEDPVNWSAMHKAVSATGLRVIGVSGCKDAQLKAEIEKMGLPILTEGAGGSGAGGSGAGGSGAGGSGPVTKTRLIDTPVRSGQRIYAPQCDLIVTSHVSAGAELIADGNIHVYGMMRGRALAGASGDRETQIFCTNLMAELVSIAGEYWLSDQIPAEFYGKAARLQLVENALTVQPLN",
    "binding result": "binds"
  },
  {
    "Binder": "MinC-3xAGGSG linker mutant (natural protein, E. coli, MinC, E. coli MG1655, N-terminal part before the linker, residues 1-101; linker that replaces residues 102-120 of MinC: AGGSG repeated three times; MinC, E. coli MG1655, C-terminal part after the linker, residues 121-231; source: E. coli Rosetta(DE3)pLysS, purified (nickel IMAC, desalting); His tag removed with thrombin; not shown: T7 tag, N-terminal, kept) MSNTPIELKGSSFTLSVVHLHEAEPKVIHQALEDKIAQAPAFLKHAPVVLNVSALEDPVNWSAMHKAVSATGLRVIGVSGCKDAQLKAEIEKMGLPILTEGAGGSGAGGSGAGGSGPVTKTRLIDTPVRSGQRIYAPQCDLIVTSHVSAGAELIADGNIHVYGMMRGRALAGASGDRETQIFCTNLMAELVSIAGEYWLSDQIPAEFYGKAARLQLVENALTVQPLN",
    "binding result": "binds"
  }
]

Read the next record carefully.
# binder MinC-2xAGGSG linker mutant (natural protein, E. coli, MinC, E. coli MG1655, N-terminal part before the linker, residues 1-101; linker that replaces residues 102-120 of MinC: AGGSG repeated twice; MinC, E. coli MG1655, C-terminal part after the linker, residues 121-231; source: E. coli Rosetta(DE3)pLysS, purified (nickel IMAC, desalting); His tag removed with thrombin; not shown: T7 tag, N-terminal, kept) MSNTPIELKGSSFTLSVVHLHEAEPKVIHQALEDKIAQAPAFLKHAPVVLNVSALEDPVNWSAMHKAVSATGLRVIGVSGCKDAQLKAEIEKMGLPILTEGAGGSGAGGSGPVTKTRLIDTPVRSGQRIYAPQCDLIVTSHVSAGAELIADGNIHVYGMMRGRALAGASGDRETQIFCTNLMAELVSIAGEYWLSDQIPAEFYGKAARLQLVENALTVQPLN ; its binding result = binds

Taken from paper doi:10.1101/2025.02.06.636808.
